Numbers sourced from ChEMBL document CHEMBL1201862.

# Test system: A549
# EXPERIMENTAL_PROTOCOL: NCI tumour cell line growth inhibition, 48 h
The source made the active and inactive calls. No stated cut-off is given here; in the data, active = GI50 up to about 1.1 µM and inactive = higher.
TEST_READOUT: GI50

Below, 3 compounds whose answers are already recorded.
Exam item: Identify measured GI50 associated with "N=C(N)N/N=C/c1cnn(C(=N)N)c1"
Marked response: > 100 µM (inactive)

Exam item: Identify measured GI50 associated with "C=C1C(=O)O[C@@H]2C[C@@]3(C)CC(=O)C=C(C)[C@@H]3C[C@H]12"
Marked response: 29.6 µM (inactive)

Exam item: Identify measured GI50 associated with CC#CC1C(OC(=O)c2ccccc2)CCCC1(CI)N=[N+]=[N-] (stereo not given)
Marked response: 58.6 µM (inactive)

Others:
Exam item: Identify measured GI50 associated with COC(=O)C(Cc1c(-c2[nH]c3ccccc3c2CC(NC(C)=O)C(=O)OC)[nH]c2ccccc12)NC(C)=O (stereo not given)
Marked response: > 100 µM (inactive)

Exam item: Identify measured GI50 associated with CC1CNC(c2ccc3c(c2)Cc2cc(C4=NC(C)CN4)ccc2-3)=N1 (stereo not given)
Marked response: > 100 µM (inactive)

* * *

# Tested on: MCF7
# EXPERIMENTAL_PROTOCOL: NCI tumour cell line growth inhibition, 48 h
Activity calls are given as the source filed them. Cut-off read from the data, not from the text of the source: active = GI50 up to about 1.1 µM and inactive = higher.
Hi! Could you answer with just one of these? active, inactive

Solved entries:
Exam item: Please let me know the test result on file for "CC[n+]1cnc(N)c2c(-c3ccc(Cl)cc3)cn(-c3ccc(C)cc3)c21" .
Marked response: active

Exam item: Please let me know the test result on file for CCCCCCCCCCCCCCCCOC[C@H](COC(c1ccccc1)(c1ccccc1)c1ccccc1)O[PH](=S)OC (stereo not given in full) .
Marked response: inactive

Exam item: Please let me know the test result on file for "Cc1nn(-c2cc(Cl)ccc2[N+](=O)[O-])c(C)c1Cl" .
Marked response: inactive

Exam item: Please let me know the test result on file for "CC1(C)N=C(/C(C#N)=[N+](/[O-])C(=O)c2ccccc2)C(C)(C)N1O" .
Marked response: inactive

Others:
Exam item: Please let me know the test result on file for "Cc1ccc2c(O)cc(-c3ccc(F)cc3)nc2n1" .
Marked response: inactive

Exam item: Please let me know the test result on file for "CC(C)CCNC(=O)c1ccc(CNC(=O)/C=C/c2csc(-c3ccccc3)n2)cc1" .
Marked response: inactive

Exam item: Please let me know the test result on file for C[N+]1(CCN[N+]2(C)CCCCC2)CCc2ccccc2C1 (stereo not given) .
Marked response: inactive

Exam item: Please let me know the test result on file for "COc1cc2c(cc1OCCCCCCCCCCN1C(=O)c3cccc4cccc(c34)C1=O)N=C[C@@H]1CCCN1C2=O" .
Marked response: inactive

Exam item: Please let me know the test result on file for "CCOC(=O)N1CCN(Cc2cc(=O)n3cc(C)ccc3n2)CC1" .
Marked response: inactive

Exam item: Please let me know the test result on file for "N#Cc1nc(C2CCC2)oc1N" .
Marked response: inactive

Exam item: Please let me know the test result on file for "COc1cc(/C=C2\N=C(c3ccccc3)N(c3nc4c(Cl)cc(Cl)cc4s3)C2=O)ccc1O" .
Marked response: inactive

Exam item: Please let me know the test result on file for "COc1ccc(-n2c(C)nc3ccc(/N=C/c4ccccc4)cc3c2=O)cc1" .
Marked response: inactive

Exam item: Please let me know the test result on file for "C=C1C(=O)O[C@@H]2C[C@@]3(C)CC(=O)C=C(C)[C@@H]3C[C@H]12" .
Marked response: inactive

Exam item: Please let me know the test result on file for "Cc1cc(S(=O)(=O)Nc2nc3ccccc3n2-c2ccccc2)c(S)cc1Cl" .
Marked response: inactive

Exam item: Please let me know the test result on file for OCC1OC(N2CCN(C3OC(CO)C(O)C(O)C3O)CC2)C(O)C(O)C1O (stereo not given) .
Marked response: inactive

Exam item: Please let me know the test result on file for "CN(CCCNC(=O)c1c2ccc3ccccc3c2nn1C)CCCNC(=O)c1c2ccc3ccccc3c2nn1C" .
Marked response: inactive

Exam item: Please let me know the test result on file for "Cc1ccc(/C=C/C(=N/NC(=O)N/N=C(/C=C/c2ccc(C)cc2)C(C)(C)CN2CCCCC2)C(C)(C)CN2CCCCC2)cc1" .
Marked response: inactive

Exam item: Please let me know the test result on file for "S=C(N/N=C/c1ccccn1)N1CCCCC1" .
Marked response: active

Exam item: Please let me know the test result on file for CC1(C)CC(=O)c2c(-c3ccc(Cl)cc3)c(C#N)c(=S)n(C3OC(CO)C(O)C(O)C3O)c2C1 (stereo not given) .
Marked response: inactive

Exam item: Please let me know the test result on file for OC12C3C4CC5C(C4[C@@H]1Br)C2[C@@](O)(c1c(F)c(F)c(F)c(F)c1F)C53 (stereo not given in full) .
Marked response: inactive
